systemUnderTest: Transcription factor p65 (Human, UniProt Q04206)
Sequence (Q04206 whole entry): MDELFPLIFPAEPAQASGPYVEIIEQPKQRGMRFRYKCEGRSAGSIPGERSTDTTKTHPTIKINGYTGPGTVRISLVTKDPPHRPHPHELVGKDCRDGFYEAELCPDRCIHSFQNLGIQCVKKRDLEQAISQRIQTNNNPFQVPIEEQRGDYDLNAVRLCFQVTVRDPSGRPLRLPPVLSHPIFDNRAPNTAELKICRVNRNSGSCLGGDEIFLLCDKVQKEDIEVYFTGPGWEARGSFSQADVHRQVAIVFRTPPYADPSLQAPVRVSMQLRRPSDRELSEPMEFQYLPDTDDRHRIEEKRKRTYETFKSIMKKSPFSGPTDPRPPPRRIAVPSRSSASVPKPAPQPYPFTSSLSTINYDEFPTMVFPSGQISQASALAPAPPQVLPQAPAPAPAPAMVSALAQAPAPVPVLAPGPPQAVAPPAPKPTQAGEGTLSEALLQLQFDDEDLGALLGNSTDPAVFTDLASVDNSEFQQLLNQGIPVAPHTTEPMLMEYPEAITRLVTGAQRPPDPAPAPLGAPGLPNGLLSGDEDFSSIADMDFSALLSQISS
measurementDescription: Potentiation of TNF-alpha-induced NF-kappaB p65 nuclear translocation in HUVEC cells by immunostaining
reportedMetric: EC50 (nM)

COc1ccc(Cl)c2nc(-c3cccs3)nc(NN3C(=O)C=C(C)C3=O)c12 : 310

[a] COc1ccc2nc(-c3cccs3)nc(NN3C(=O)C=C(C)C3=O)c2c1
[b] COc1cccc2nc(-c3cccs3)nc(NN3C(=O)C=C(C)C3=O)c12
Which has the smaller recorded EC50, a or b ? Please identify the chosen entry by its label. b
(b: 380 nM, a: 42000 nM)
